Conditions: 288.15 K; 101 kPa; Liquid; Vibrating tube method
Measured mass density by item
Answer with a number only, understood to be in kg/m3.

CCCCOC(=O)C(C)O (centres undefined) [butyl 2-hydroxypropanoate] | 987.269

Asked: Sample OCCCO — what was its mass density?
Given back: 1055.96

Asked: // returns reported mass density for input CC(O)CO (centres undefined)
Given back: 1039.87

Asked: Any idea what its mass density is? The molecule is CCCO
Given back: 807.752

----------
Conditions: 313.15 K; 101 kPa; Liquid; Concentric cylinders viscometry
Quantity Kind: viscosity (mPa·s)
The reply should contain only the number, in mPa·s.

Example entries begin here.
CC(O)CO (centres undefined) [1,2-propanediol] | 19.85
CCCCOC(=O)C(C)O (centres undefined) [butyl 2-hydroxypropanoate] | 2.181
CCCO [propan-1-ol] | 1.378

Asked: What measured viscosity goes with OCCCO [propan-1,3-diol] ?
Given back: 21.76

----------
Assay: refractive index (Na D-line) (dimensionless)
Conditions: 293.15 K; 101.33 kPa; Liquid; Standard Abbe refractometry
Quantity Kind: refractive index
Reply: number alone, nothing else.

Observe how each entry below is paired with its result.
OCCCO [propan-1,3-diol] | 1.43932
CC(O)CO (centres undefined) [1,2-propanediol] | 1.4327
CCCCOC(=O)C(C)O (centres undefined) [butyl 2-hydroxypropanoate] | 1.42152

Asked: # get_value(readout='refractive index', item= CCCO [propan-1-ol] )
Given back: 1.38543

----------
Property: mass density; scope: individual molecules
Conditions: 323.15 K; 101 kPa; Liquid; Vibrating tube method
The figure you give is taken to be in kg/m3; do not add the unit.

These recorded examples may help you get a feel for the data.
CCCCOC(=O)C(C)O (centres undefined) [butyl 2-hydroxypropanoate] | 952.631
CC(O)CO (centres undefined) | 1013.66
OCCCO | 1033.98

Now for a further molecule.
Asked: Consider the molecule shown here: CCCO What is its recorded mass density?
Given back: 779.137

----------
Test: refractive index (Na D-line) (dimensionless)
Conditions: 298.15 K; 101.33 kPa; Liquid; Standard Abbe refractometry
Quantity Kind: refractive index
No unit in the answer, please; the number alone is enough.

CCCO [propan-1-ol] | 1.3834

Asked: Query (compound): CCCCOC(=O)C(C)O (centres undefined) [butyl 2-hydroxypropanoate] ; field requested: refractive index
Given back: 1.41925

Asked: Could you share which refractive index value was measured for CC(O)CO (centres undefined) [1,2-propanediol] ?
Given back: 1.43102

Asked: What does the record list as refractive index for OCCCO [propan-1,3-diol] ?
Given back: 1.43793
